The measurements presented in this section are drawn from patent US9067937B2.

Assignment: determine reported log10(IC50) for the given compounds.
Biological target: MELK (Homo sapiens, UniProt Q14680)
Sequence (Q14680 whole entry, looked up): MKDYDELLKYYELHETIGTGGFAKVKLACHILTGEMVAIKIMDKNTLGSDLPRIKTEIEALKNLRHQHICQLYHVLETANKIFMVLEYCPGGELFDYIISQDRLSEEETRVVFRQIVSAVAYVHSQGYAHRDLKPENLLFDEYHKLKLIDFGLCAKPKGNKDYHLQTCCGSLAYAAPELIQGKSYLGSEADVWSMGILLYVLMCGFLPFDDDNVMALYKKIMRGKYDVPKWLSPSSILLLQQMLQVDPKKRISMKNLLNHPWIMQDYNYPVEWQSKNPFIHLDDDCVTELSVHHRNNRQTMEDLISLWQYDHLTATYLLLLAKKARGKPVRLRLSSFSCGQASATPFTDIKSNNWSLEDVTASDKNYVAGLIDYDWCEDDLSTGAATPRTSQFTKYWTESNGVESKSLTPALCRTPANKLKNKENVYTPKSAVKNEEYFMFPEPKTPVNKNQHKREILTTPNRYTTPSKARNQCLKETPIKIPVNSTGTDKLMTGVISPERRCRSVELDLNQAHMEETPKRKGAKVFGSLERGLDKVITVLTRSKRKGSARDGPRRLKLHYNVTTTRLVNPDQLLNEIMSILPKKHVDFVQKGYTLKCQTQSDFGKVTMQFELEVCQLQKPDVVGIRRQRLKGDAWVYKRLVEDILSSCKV
Experiment: Kinase assay (IMAP fluorescence polarization, FITC-labeled histone H3 peptide)
Format: biochemical
Conditions: 50 micro-M ATP
Structures can show the parent of a compound that is named as a salt.
In plain terms, each number is the log10 of measured IC50 in µM.

For every item below, please supply its log10(IC50).
1. N[C@@H]1CCCN(c2ccc(Nc3c(C(=O)C4CC4)cnc4ccc(-c5cc(F)c(O)c(Cl)c5)nc34)cn2)C1
2. CN(C)C[C@H]1CC[C@H](Nc2c(C(=O)C3CC3)cnc3ccc(-c4cc(Cl)c(O)c(Cl)c4)nc23)CC1 [Example 4, dihydrochloride]

Marked response:
-3.34
-3.30
